# Tested on: UACC-257
# methodSummary: NCI tumour cell line growth inhibition, 48 h
Active and inactive are the calls of the source. No stated cut-off is given here; in the data, active = GI50 up to about 1.1 µM and inactive = higher.
endpointName: GI50

Query: Look up GI50: CC(NNC(=O)c1cc[n+]([BH2-]C#N)cc1)c1cccc(C(F)(F)F)c1 (centres undefined)
Reply: 68.2 µM (inactive)

Query: Look up GI50: Cc1cc2[nH]c(=NS(=O)(=O)c3cc(C)c(Cl)cc3S)[nH]c2cc1C
Reply: > 100 µM (inactive)

Query: Look up GI50: COc1ccc2c(c1)O[C@@H]1C(O)Oc3cc(OC)c(OC)cc3[C@]1(O)C2=O (some centres undefined)
Reply: 29 µM (inactive)

Query: Look up GI50: COC1=C(C)C(=O)C2=C(C1=O)C1C3CC4=C(C(=O)C(OC)=C(C)C4=O)C(CNC(=O)C(C)O)N3C(C#N)C(C2)N1C (centres undefined)
Reply: < 0.01 µM (active)

Query: Look up GI50: OCCN=C1c2ccccc2C2C(c3ccccc31)C1c3ccccc3C(=NCCO)c3ccccc3C21 (centres undefined)
Reply: 24.7 µM (inactive)

Query: Look up GI50: CC[C@]1(Cc2ccc(OC)c(OC)c2)C=[N+]([O-])O[C@H](OC2CCCCC2c2ccccc2)[C@@H]1OC(C)=O (some centres undefined)
Reply: 67.3 µM (inactive)

Query: Look up GI50: COC(=O)C1CCC(=O)N1C(c1ccccc1)c1cc(OC)c(OC)c(OC)c1 (centres undefined)
Reply: > 100 µM (inactive)

Query: Look up GI50: Cn1cc(NC(=O)c2cc(NC(=O)Nc3cc(C(=O)Nc4cc(C(=O)NCCC(=N)N)n(C)c4)n(C)c3)cn2C)cc1C(=O)NCCC(=N)N
Reply: 17.7 µM (inactive)

Query: Look up GI50: COc1ccc(NC(=O)CC(=O)n2nc(C)c(/N=N/c3cccc(C)c3)c2C)cc1
Reply: > 10 µM (inactive)

Query: Look up GI50: O=S(=O)(O)c1ccc(/N=N\c2ccc(/N=N/c3ccc(/C=C/c4ccc(/N=[N+](\[O-])c5ccc(/C=C/c6ccc(/N=N/c7ccc(/N=N/c8ccc(S(=O)(=O)O)cc8)c8ccccc78)cc6S(=O)(=O)O)c(S(=O)(=O)O)c5)cc4S(=O)(=O)O)c(S(=O)(=O)O)c3)c3ccccc23)cc1
Reply: > 100 µM (inactive)

Query: Look up GI50: Cc1[nH]c2ccccc2c1C1=CC(=O)N(c2ccccc2)C1=O
Reply: 13.1 µM (inactive)

Query: Look up GI50: O=c1[nH]c(C2CCCCC2)nc2c(Cl)cccc12
Reply: > 100 µM (inactive)

Query: Look up GI50: CO/C=C(/C(=O)OC)c1ccccc1COc1cccc(C(F)(F)F)c1
Reply: 0.676 µM (active)

Query: Look up GI50: O=C1Nc2cccc(Cl)c2/C1=C\c1c(Cl)nc2n1CCS2
Reply: > 100 µM (inactive)
